Where do these numbers come from? They come from patent US20070155730A1.

target: histone deacetylase (HDAC); test: Inhibition of Histone Deacetylase Enzymatic Activity; settings: substrate Boc-Lys(Ac)-AMC, Fluor-de-Lys developer, 37° C., 20 min; against one or more of HDAC-1 to HDAC-11, SirT1 to SirT7 (isoform not given); read-out: HDAC Inhibitory Activity (IC50)
Listed here are compounds together with their documented IC50.
property.name: IC50

[[record]]
compound = "O=C(CCCCCC1NC(=O)c2ccccc2N(CCc2ccccc2)C1=O)NO (stereo not drawn)"
property_name = "IC50"
reported_value = "500 to 2000 nM"

[[record]]
compound = "CC(C)[C@H]1C(=O)Nc2cc(C(=O)NO)ccc2N1Cc1ccc(C(=N)NO)cc1 [Compound 16f]"
property_name = "IC50"
reported_value = "50 to 500 nM"

[[record]]
compound = "CC(C)[C@H]1C(=O)Nc2cc(C(=O)NO)ccc2N1CCCc1ccccc1 [Compound 16c]"
property_name = "IC50"
reported_value = "500 to 2000 nM"

[[record]]
compound = "O=C(CCc1ccc2c(c1)NC(=O)[C@H](Cc1c[nH]c3ccccc13)N2)NO"
property_name = "IC50"
reported_value = "500 to 2000 nM"

[[record]]
compound = "Nc1ccc(-c2cccs2)cc1NC(=O)c1ccc(-c2ccc3c(c2)NC(=O)[C@H](Cc2c[nH]c4ccccc24)N3)cc1"
property_name = "IC50"
reported_value = "50 to 500 nM"

[[record]]
compound = "O=C(NO)c1ccc(O[C@H]2C[C@@H](C(=O)Nc3cccc4cccnc34)N(C(=O)OCc3ccccc3)C2)cc1 [Compound 109a]"
property_name = "IC50"
reported_value = "50 to 500 nM"

[[record]]
compound = "O=C(CCO[C@@H]1C[C@@H](C(=O)Nc2cccc3cccnc23)N(C(=O)OCc2ccccc2)C1)NO [Compound 112a]"
property_name = "IC50"
reported_value = "500 to 2000 nM"

[[record]]
compound = "CC(C)[C@H]1C(=O)Nc2cc(C(=O)NO)ccc2N1S(=O)(=O)c1cccc2ccccc12 [Compound 18f]"
property_name = "IC50"
reported_value = "500 to 2000 nM"

[[record]]
compound = "O=C(NO)c1ccc(CN2c3ccccc3NC(=O)[C@H]2Cc2ccoc2)cc1"
property_name = "IC50"
reported_value = "< 50 nM"

[[record]]
compound = "CC(C)[C@H]1C(=O)Nc2cc(C(=O)NO)ccc2N1S(=O)(=O)c1ccc(-c2ccccc2)cc1 [Compound 18b]"
property_name = "IC50"
reported_value = "500 to 2000 nM"

[[record]]
compound = "O=C(NO)c1ccc2c(c1)NC(=O)[C@@H](c1ccccc1)NC2=O [Compound 97j]"
property_name = "IC50"
reported_value = "2000 to 10000 nM"

[[record]]
compound = "CC(C)(C)OC(=O)NCCCC[C@@H]1C(=O)Nc2ccccc2N1Cc1ccc(C(=O)NO)cc1"
property_name = "IC50"
reported_value = "< 50 nM"

[[record]]
compound = "O=C(CCCCCN1C(=O)C2(CCCC2)NC(=O)c2ccccc21)NO"
property_name = "IC50"
reported_value = "2000 to 10000 nM"

[[record]]
compound = "O=C(NO)c1ccc2c(c1)NC(=O)[C@@H](Cc1c[nH]c3ccccc13)N2"
property_name = "IC50"
reported_value = "2000 to 10000 nM"

[[record]]
compound = "CC(C)(C)C[C@@H]1NC(=O)c2ccccc2N(CCCCCC(=O)NO)C1=O"
property_name = "IC50"
reported_value = "50 to 500 nM"

[[record]]
compound = "CCC(C)[C@@H]1Nc2ccc(C(=O)NO)cc2NC1=O (stereo partly drawn)"
property_name = "IC50"
reported_value = "2000 to 10000 nM"

[[record]]
compound = "Cn1cc(C[C@@H]2Nc3ccc(C(=O)NO)cc3NC2=O)c2ccccc21"
property_name = "IC50"
reported_value = "500 to 2000 nM"

[[record]]
compound = "COc1ccc(CN2c3ccccc3NC(=O)[C@H]2CCC(=O)CCC(=O)NO)cc1"
property_name = "IC50"
reported_value = "2000 to 10000 nM"

[[record]]
compound = "O=C(NO)c1ccc(CN2c3ccccc3NC(=O)[C@@H]2Cc2c[nH]c3ccccc23)cc1"
property_name = "IC50"
reported_value = "< 50 nM"

[[record]]
compound = "O=C(CCCCCC1NC(=O)c2cc(Oc3ccccc3)ccc2NC1=O)NO (stereo not drawn) [Compound 88a]"
property_name = "IC50"
reported_value = "50 to 500 nM"

[[record]]
compound = "CC(C)C[C@H]1NC(=O)c2ccccc2N(CCCCCC(=O)NO)C1=O"
property_name = "IC50"
reported_value = "50 to 500 nM"

[[record]]
compound = "Cc1cc(C)c(S(=O)(=O)N2c3ccc(C(=O)NO)cc3NC(=O)[C@@H]2C(C)C)c(C)c1 [Compound 18c]"
property_name = "IC50"
reported_value = "2000 to 10000 nM"

[[record]]
compound = "O=C(CCCCCN1C(=O)[C@H](c2ccccc2)NC(=O)c2ccccc21)NO"
property_name = "IC50"
reported_value = "50 to 500 nM"

[[record]]
compound = "O=C(NO)c1ccc2c(c1)NC(=O)[C@H](CC1CCCCC1)NC2=O [Compound 97h]"
property_name = "IC50"
reported_value = "500 to 2000 nM"

[[record]]
compound = "O=C(CCCCCN1C(=O)[C@@H](CC2CCCCC2)NC(=O)c2ccccc21)NO"
property_name = "IC50"
reported_value = "50 to 500 nM"

[[record]]
compound = "O=C(NO)c1ccc2c(c1)NC(=O)[C@@H](CC1CCCCC1)NC2=O [Compound 97g]"
property_name = "IC50"
reported_value = "2000 to 10000 nM"

[[record]]
compound = "O=C(CCCCCC1NC(=O)c2cc(NC(=O)OCc3ccccc3)ccc2NC1=O)NO (stereo not drawn) [Compound 92a]"
property_name = "IC50"
reported_value = "50 to 500 nM"

[[record]]
compound = "O=C(CCCCCN1C(=O)[C@H](CC2CCCCC2)NC(=O)c2ccccc21)NO"
property_name = "IC50"
reported_value = "500 to 2000 nM"

[[record]]
compound = "Nc1ccccc1NC(=O)c1ccc2c(c1)NC(=O)[C@H](Cc1c[nH]c3ccccc13)N2"
property_name = "IC50"
reported_value = "2000 to 10000 nM"

[[record]]
compound = "CC(C)C[C@H]1NC(=O)c2ccccc2N(CCCCCC(=O)Nc2cscc2N)C1=O"
property_name = "IC50"
reported_value = "2000 to 10000 nM"

[[record]]
compound = "CC(C)[C@H]1C(=O)Nc2cc(C(=O)NO)ccc2N1Cc1ccc(C(=O)O)cc1 [Compound 16d]"
property_name = "IC50"
reported_value = "2000 to 10000 nM"

[[record]]
compound = "CC(C)C[C@@H]1Nc2ccc(C(=O)NO)cc2NC1=O"
property_name = "IC50"
reported_value = "2000 to 10000 nM"

[[record]]
compound = "O=C(NO)c1ccc2c(c1)NC(=O)[C@H](Cc1ccc(O)cc1)N2"
property_name = "IC50"
reported_value = "2000 to 10000 nM"


----------
# maps each entry to its IC50
molecular target: histone deacetylase (HDAC); assay: Inhibition of Histone Deacetylase Enzymatic Activity; conditions: substrate Boc-Lys(Ac)-AMC, Fluor-de-Lys developer, 37° C., 20 min; against one or more of HDAC-1 to HDAC-11, SirT1 to SirT7 (isoform not given); read-out: HDAC Inhibitory Activity (IC50)
property.name: IC50

[[record]]
molecule = "CC(C)C[C@H]1NC(=O)c2ccccc2N(CCCCCC(=O)Nc2ccccc2N)C1=O"
reported_value = "2000 to 10000 nM"

[[record]]
molecule = "O=C(/C=C/c1ccc2c(c1)NC(=O)[C@H](Cc1c[nH]c3ccccc13)N2)NO [Compound 66c]"
reported_value = "500 to 2000 nM"

[[record]]
molecule = "CC(C)[C@H]1C(=O)Nc2cc(C(=O)NO)ccc2N1Cc1ccccc1 [Compound 16g]"
reported_value = "2000 to 10000 nM"

[[record]]
molecule = "O=C(NO)c1ccc2c(c1)NC(=O)[C@H](Cc1c[nH]c3ccccc13)NC2=O [Compound 97c]"
reported_value = "500 to 2000 nM"


----------
target: histone deacetylase (HDAC); test: Inhibition of Histone Deacetylase Enzymatic Activity; details: substrate Boc-Lys(Ac)-AMC, Fluor-de-Lys developer, 37° C., 20 min; against one or more of HDAC-1 to HDAC-11, SirT1 to SirT7 (isoform not given); read-out: HDAC Inhibitory Activity (IC50)
property.name: IC50

[[record]]
compound = "COc1ccc(CN2c3ccccc3NC(=O)C2CCCCCC(=O)Nc2ccccc2N)cc1 (centres unmarked) [Compound 47b]"
reported_value = "2000 to 10000 nM"

[[record]]
compound = "CC(C)[C@H]1C(=O)Nc2cc(C(=O)NO)ccc2N1Cc1ccc2ccccc2c1 [Compound 16h]"
reported_value = "500 to 2000 nM"

[[record]]
compound = "O=C(NO)c1ccc(CN2c3ccccc3NC(=O)[C@H]2Cc2ccccc2)cc1 [Compound 54b5]"
reported_value = "< 50 nM"

[[record]]
compound = "CC(C)[C@@H]1Nc2ccc(NC(=O)CCCCCCC(=O)NO)cc2NC1=O [Compound 24a]"
reported_value = "50 to 500 nM"

[[record]]
compound = "O=C(CCCCCC1NC(=O)c2ccccc2NC1=O)NO (centres unmarked) [Compound 74]"
reported_value = "50 to 500 nM"

[[record]]
compound = "CC(C)[C@H]1C(=O)Nc2cc(C(=O)NO)ccc2N1Cc1ccc(F)cc1 [Compound 16a]"
reported_value = "2000 to 10000 nM"

[[record]]
compound = "COc1cc(CN2C(=O)C(CCCCCC(=O)NO)NC(=O)c3ccccc32)cc(OC)c1 (centres unmarked) [Compound 81]"
reported_value = "500 to 2000 nM"

[[record]]
compound = "COc1ccc(CN2C(=O)C(CCCCCC(=O)NO)NC(=O)c3ccccc32)cc1 (centres unmarked) [Compound 82]"
reported_value = "500 to 2000 nM"

